test system: KM12 colon; assay: NCI tumour cell line growth inhibition, 48 h; in the data active = GI50 below about 0.43 µM; inactive = the rest
Return exactly one item of yes (1) = active, no (0) = inactive

(Q) Recorded call for `COc1cc(OC)cc(-c2n/c(=C\c3c(O)[nH]c4ccc(OC)cc34)cc3c2=Nc2ccccc2-3)c1` ?
(A) no (0)

(Q) What do you get for `Cn1cc(-c2ccc3cc(-c4ccc(CC(=O)Nc5cc(C(C)(C)C)on5)cc4)cnc3c2)cn1` ?
(A) yes (1)

(Q) What do you get for `CCOC(=O)c1cc2c(cc1Cl)SC(=Nc1ccccc1)N(S(=O)(=O)c1ccc(Cl)cc1)S2(=O)=O` ?
(A) no (0)

(Q) What do you get for CC(N)(Cc1c[nH]c2cccc(F)c12)C(=O)O (centres undefined) ?
(A) no (0)

(Q) What do you get for `CCc1ccc(CCC(=O)Nc2ncc(Cc3ccc(Cl)cc3)s2)o1` ?
(A) yes (1)

(Q) What do you get for `Cc1ccc(/C=N/Nc2nc(Nc3ccccc3)nc(-n3nc(C)cc3C)n2)cc1` ?
(A) no (0)

(Q) What do you get for `CC(=O)[O-].Cn1ccnc1CNCc1nccn1C.[Cu+2].[O-][Cl+3]([O-])([O-])[O-]` ?
(A) no (0)

(Q) What do you get for `Cc1ccccc1NC(=O)c1sc2nc(C)c(C(=O)/C=C/c3ccccc3)cc2c1N` ?
(A) no (0)

(Q) What do you get for `C[C@]12CC[C@H]3[C@@H](CC=C4C[C@@H](N5CCCC5)CC[C@@]43C)[C@@H]1C/C(=C\c1cccc(OCCN3CCOCC3)c1)[C@@H]2O` ?
(A) no (0)

----------
system: NCI-H522 lung; test: NCI tumour cell line growth inhibition, 48 h
test.readout: TGI

(Q) Endpoint output: TGI of `Cc1ccc(S(=O)(=O)SC(C)(C)C)cc1` . Value?
(A) 32.3 µM

(Q) What do you get for `C=C/C=C/[C@@H](O)CC(=C)C[C@H]1OC2[C@H](C)[C@@H](OC(=O)C[C@H]3C[C@H](OC(C)=O)C[C@@]4(C[C@@](C)(O)C[C@H](CC(=C)[C@@H](C)[C@H](OC(C)=O)[C@H](C)C(=O)C[C@@H]5C[C@H](OC)CC6(C[C@@H](O)C[C@H](/C=C\CCC[C@H]7O[C@](O)(C=C[C@H]7C)[C@H]2O)O6)O5)O4)O3)[C@@H]1O` ?
(A) < 0.0025 µM

(Q) What do you get for `CC1(C)CNc2cc(NC(=O)c3cccnc3NCc3ccncc3)ccc21` ?
(A) > 95.4 µM

(Q) What do you get for `Cc1cc(S(=O)(=O)Nc2nnc3cnc4ccccc4n23)c(S)cc1Cl` ?
(A) > 100 µM

(Q) What do you get for CCOC(=O)C(=O)CC1=Nc2ccccc2SC(c2cccc(C)c2)C1 (stereo not drawn) ?
(A) 32.8 µM

(Q) What do you get for `O=C(/C=C/c1ccccc1F)c1ccc(Cl)c(Cl)c1` ?
(A) 61.2 µM

(Q) What do you get for `N=c1c2c(=S)n(-c3ccccc3)c(=S)n(-c3ccccc3)c2nc(SCCN2CCCC2)n1-c1ccccc1` ?
(A) 3.71 µM

(Q) What do you get for `NCCCC[C@@H]1NC(=O)[C@H](CC(=O)O)NC(=O)CNC(=O)[C@H](CCCN=C(N)N)NC(=O)[C@@H](N)CSSC[C@@H](C(=O)O)NC(=O)[C@H](CC(=O)O)NC(=O)[C@@H]2CCCN2C(=O)CNC1=O` ?
(A) > 100 µM

----------
system: UACC-62 melanoma; test: NCI tumour cell line growth inhibition, 48 h
test.readout: TGI

(Q) Endpoint output: TGI of `NCCCC[C@@H]1NC(=O)[C@H](CC(=O)O)NC(=O)CNC(=O)[C@H](CCCN=C(N)N)NC(=O)[C@@H](N)CSSC[C@@H](C(=O)O)NC(=O)[C@H](CC(=O)O)NC(=O)[C@@H]2CCCN2C(=O)CNC1=O` . Value?
(A) > 100 µM

(Q) What do you get for Cc1cccc(N2C(=O)C3c4[nH]c5ccccc5c4C4CCC(C(C)(C)C)CC4C3C2=O)c1 (stereo unspecified) ?
(A) 49 µM

(Q) What do you get for NCC(O)CNC(=O)c1ccc(-c2ccc(-c3ccc(C(=O)NCC(O)CN)cc3)o2)cc1 (stereo unspecified) ?
(A) > 100 µM

(Q) What do you get for `CCc1ccc(CCC(=O)Nc2ncc(Cc3ccc(Cl)cc3)s2)o1` ?
(A) > 100 µM

(Q) What do you get for CCCCCCCCCCCCCCCCOP(=O)(O)OCC(N)C(=O)O (stereo unspecified) ?
(A) 37 µM

(Q) What do you get for CC(O)(P(=O)(O)O)P(=O)(O)OCC(O)CN1CCOCC1 (stereo unspecified) ?
(A) > 100 µM

(Q) What do you get for `C=C1C(=O)O[C@@H]2[C@H](O)[C@@H](C)[C@@H]3C=CC(=O)[C@@]3(C)[C@@H](OC(=O)/C(C)=C/C)[C@H]12` ?
(A) 1.11 µM

(Q) What do you get for CC1/C(=N\O)CC(c2ccccc2)N(C)C1c1ccccc1 (stereo unspecified) ?
(A) > 100 µM

(Q) What do you get for `CCOC(=O)NC(OC)(C(F)(F)F)C(F)(F)F` ?
(A) > 100 µM

(Q) What do you get for `Clc1cccc(NN=Nc2ccc(-c3nc4ccccc4s3)cc2)c1` ?
(A) 51.8 µM

(Q) What do you get for `COC(=O)c1c(O)ccc2[nH]c3c(O)c4ccccc4cc3c12` ?
(A) > 100 µM

(Q) What do you get for `COc1ccc2c(c1)[nH]c(=O)c1c3cccc(F)c3cn21` ?
(A) > 100 µM

(Q) What do you get for `COC12C=C/C(=C(/C(=O)OCc3ccccn3)C(=O)CCCCCCCCC3(OC)C=C/C(=C(/C(=O)OCc4ccccn4)C(=O)CCCCCCCC1)O3)O2` ?
(A) 1.22 µM

(Q) What do you get for `O=C(/C=C/c1ccccc1F)c1ccc(Cl)c(Cl)c1` ?
(A) > 100 µM

(Q) What do you get for `O=C(Nc1ccccc1)Nc1ccc2cc3ccc(NC(=O)Nc4ccccc4)cc3nc2c1` ?
(A) 3.21 µM

(Q) What do you get for `COc1ccc2c(c1)c(-c1nc(-c3c[nH]c4ccncc34)cs1)cn2C` ?
(A) 3.35 µM

(Q) What do you get for `CN(C)CCNC(=O)c1cccc2cc3c(Cl)cccc3nc12` ?
(A) 3.82 µM

(Q) What do you get for O=C(CC1OC(O)C(Cl)=C1Cl)c1cccnc1 (stereo unspecified) ?
(A) > 100 µM

(Q) What do you get for `O=C1C(Cl)=C(N(C(=O)c2ccccc2)C(=O)c2ccccc2)C(=O)c2ccccc21` ?
(A) 19.8 µM

(Q) What do you get for NC(CCOCCP(=O)(O)O)C(=O)O (stereo unspecified) ?
(A) > 100 µM

(Q) What do you get for C/C=C1\CN(C(=O)OC(C)(C)C)C1C(=O)OC(C)(C)C (stereo unspecified) ?
(A) > 100 µM

(Q) What do you get for C=C1CC(Cn2ccc(=O)[nH]c2=O)(c2ccc(Cl)cc2)OC1=O (stereo unspecified) ?
(A) 13.4 µM

(Q) What do you get for CC1=C(c2ccccc2)C(O)(c2ccccc2)C(C)C1=O (stereo unspecified) ?
(A) > 100 µM

(Q) What do you get for `COC(=O)c1ccc(CN2C(=O)C(Cl)=C(Nc3cccc(Cl)c3C)C2=O)cc1` ?
(A) > 100 µM

(Q) What do you get for Nc1nc([Se])c2ncn(C3OC(CO)C(O)C3O)c2n1 (stereo unspecified) ?
(A) > 100 µM

(Q) What do you get for COc1cc2c(c(O)c1OC)CC1CCC(=O)N1C2c1cccc2ccccc12 (stereo unspecified) ?
(A) 30.9 µM

(Q) What do you get for `COc1ccc(Cc2coc3ccccc3c2=O)cc1OC` ?
(A) > 100 µM

(Q) What do you get for O=c1ccn(C2OC(CO)C(O)C2F)c(=O)n1Cc1ccccc1 (stereo unspecified) ?
(A) > 100 µM

(Q) What do you get for `Cc1nc(C)c(N2CCNCC2)c(=O)[nH]1` ?
(A) > 100 µM

(Q) What do you get for C=C1C(O)C[C@H](OC(C)=O)[C@]2(C)C1C(OC(C)=O)[C@]1(C(C)(C)O)CC(O)C(C)=C1[C@@H](OC(=O)c1ccccc1)C2OC(C)=O (stereo partly specified) ?
(A) > 10 µM

(Q) What do you get for `O=c1oc2ccccc2cc1-c1cn2c(n1)sc1ccccc12` ?
(A) > 100 µM

(Q) What do you get for C[CH2][Ge]([CH2]C)([CH2]C)[O]C(=O)C(OC(C)=O)c1ccccc1 (stereo unspecified) ?
(A) > 100 µM

(Q) What do you get for CCOC(=O)C(=O)CC1=Nc2ccccc2SC(c2cccc(C)c2)C1 (stereo unspecified) ?
(A) 31.9 µM

(Q) What do you get for `COC(=O)N/N=C(\C)c1c(O)cc(C)oc1=O` ?
(A) > 100 µM

(Q) What do you get for `Cc1oc2c(c1C)S(=O)(=O)C(C#N)=C(N(C)C)N2` ?
(A) > 100 µM

(Q) What do you get for `O=C(O)c1ccc(C2=Cc3cc(Cl)ccc3OC2)cc1` ?
(A) > 100 µM

(Q) What do you get for `O=C(/C=C/c1cccc(Oc2ccccc2)c1)NCc1ccc(C(=O)NCCc2ccccc2)cc1` ?
(A) > 100 µM

(Q) What do you get for CCCCCCCCCCCC[C@@H](O)[C@H]1CCC([C@H](O)CCCCC(=O)CCCCCCCC2=C[C@H](C)OC2=O)O1 (stereo partly specified) ?
(A) > 40.9 µM

(Q) What do you get for `COc1ccc2c3c([nH]c2c1)CCN(CCCC(=O)c1ccc(F)cc1)C3` ?
(A) 27.4 µM

(Q) What do you get for Cc1c(N=Nc2ccccc2)c(C)n(C2OC(CO)C(O)C(O)C2O)c(=S)c1C#N (stereo unspecified) ?
(A) 18.9 µM

(Q) What do you get for CC1CC/C(=C\c2ccc(F)cc2)C(=O)/C1=C/c1ccc(F)cc1 (stereo unspecified) ?
(A) 24.7 µM
